Numbers sourced from paper PMC12056667.

For each of the molecules below, state its Combination (Antibiotic/Inhibitor) MICs: inhibitor.
System: Salmonella enterica T-2a – tet(X4)
Test Protocol: microbe, parasite or virus in culture
Assay type: cell-based
Experimental Conditions: inhibitor in combination with tigecycline, lowest FICI
Answers are plain numbers, in µg/mL.

CN1CCN(CCCN2c3ccccc3Sc3ccc(C(F)(F)F)cc32)CC1 ... 64
O=C(c1ccc(OCCN2CCCCC2)cc1)c1c(-c2ccc(O)cc2)sc2cc(O)ccc12 ... 128
Cc1c2c(c(O)c3c(O)cccc13)C(=O)[C@]1(O)C(=O)C(C(N)=O)=C(O)[C@@H](N(C)C)[C@@H]1C2 [Anhydrotetracycline] ... 16

# batch: return Combination (Antibiotic/Inhibitor) MICs: inhibitor for each of the 2 molecules below
1. CN1CCN(CCCN2c3ccccc3Sc3ccc(Cl)cc32)CC1
2. [H]/N=C(/NCCCCC)N/N=C/c1c[nH]c2ccc(OC)cc12

Out:
1. 64
2. 8
